B1: NELF-E aptamer (parent)
chain: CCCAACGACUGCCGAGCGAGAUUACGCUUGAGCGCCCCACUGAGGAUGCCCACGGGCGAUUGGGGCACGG

variants of: B1; assay: HiTS-RAP; settings: with NELF-E (Drosophila)
pKd: −log10 of the molar value.
Some variants, each annotated with its measured pKd.

mutation: U22G G64A
pKd: 8.06
//
mutation: U29G C53U
pKd: 8.43
//
mutation: A5G C17G
pKd: 8.28
//
mutation: G16U A52G
pKd: 8.32
//
mutation: C13G G20A
pKd: 8.13
//
mutation: A21G A24G
pKd: 8.19
//
mutation: C12G C57U
pKd: 8.19
//
mutation: A4G A5U
pKd: 8.23
//
mutation: U23G U28A
pKd: 8.30
//
mutation: A24G C35U
pKd: 8.02
//
mutation: U22G U41C
pKd: 7.13
//
mutation: A4G G20U
pKd: 8.15
//
mutation: U10G C37G
pKd: 8.17
//
mutation: C6G U23A
pKd: 8.29
//
mutation: A21G U41G
pKd: 8.21
//
mutation: G58U
pKd: 8.01
//
mutation: A8G C33U
pKd: 8.29
//
mutation: C6U G11U
pKd: 8.21
//
mutation: U10G G14C
pKd: 8.20
//
mutation: A8U A31G
pKd: 8.09
